Sourced from patent US20140322307A1

Record form. Attribute: Inhibition PAR-2 activity (calcium fluorescence, human keratinocytes, peptide at 1 mg/mL). Fill in for each entry.
Target: T1, Proteinase-Activated Receptor-2 (human, on human keratinocytes) (human, UniProt P55085 37-397)
T1 sequence (looked up): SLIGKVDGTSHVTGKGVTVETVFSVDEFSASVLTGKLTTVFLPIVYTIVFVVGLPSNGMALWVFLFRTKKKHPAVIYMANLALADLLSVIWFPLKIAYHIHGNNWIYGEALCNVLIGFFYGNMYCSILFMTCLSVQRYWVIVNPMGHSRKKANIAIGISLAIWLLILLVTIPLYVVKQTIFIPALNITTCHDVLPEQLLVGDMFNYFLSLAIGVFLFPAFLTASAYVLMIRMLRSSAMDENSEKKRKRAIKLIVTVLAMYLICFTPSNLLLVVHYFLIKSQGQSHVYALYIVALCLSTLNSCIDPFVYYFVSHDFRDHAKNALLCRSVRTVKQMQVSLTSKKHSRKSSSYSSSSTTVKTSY
Experiment: cell-based or functional assay
One number for each entry, in %.

// worked examples, Inhibition PAR-2 activity (calcium fluorescence, human keratinocytes, peptide at 1 mg/mL) included
binder: Ac-FFQDIS-NH2 [Ac-L-Phe-L-Phe-L-Gln-L-Asp-L-Ile-L-Ser-NH2]
test.value: 27

binder: Ac-SFWFHV-NH2 [Ac-L-Ser-L-Phe-L-Trp-L-Phe-L-His-L-Val-NH2]
test.value: 58.3

binder: Ac-FFWFHS-NH2 [Ac-L-Phe-L-Phe-L-Trp-L-Phe-L-His-L-Ser-NH2]
test.value: 49.2

Could you now consider this next binder?
Query: Please report the measured Inhibition PAR-2 activity (calcium fluorescence, human keratinocytes, peptide at 1 mg/mL) for Ac-FMQFIV-NH2 [Ac-L-Phe-L-Met-L-Gln-L-Phe-L-Ile-L-Val-NH2]
Response: 28.6
